Provide the recorded AC50 for the entries that follow.
run.description: Luminescence Cell-Based Dose Retest to Confirm Inhibitors of Cancer Stem Cells. [Related pubchem assays (depositor defined):AID2717, AID2721];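 note: cells exposed to compound for roughly 70 hours or longer before luminescence read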
Assay type: functional
experimental.setup: Homo sapiens
The source made the active and inactive calls. Cut-off read from the data, not from the text of the source: actives have a measured AC50 and inactives only a lower limit.

> print(dat)
                                item.smiles         meas.value
1  c1cc2cc(-c3c(-c4ccc5c(c4)OCO5)noc3-c3ccsc3)ccc2[nH]1   1.69 µM (active)
2  Cc1ccc(-c2nc(Nc3cccc(O)c3)c3ccccc3n2)cc1   5.05 µM (active)
3  Cc1cc(C)c(C)c(S(=O)(=O)N2CCN(c3ccc(O)cc3)CC2)c1C   8.83 µM (active)
4  O=C(NNC1=C(C(=O)C(F)(F)F)CCC1)c1ccc(Br)cc1   3.16 µM (active)
5  O=c1c(Cl)c(NCc2ccc(F)cc2)cnn1C12CC3CC(CC(C3)C1)C2  0.913 µM (active)
6    COc1ccc(C(=O)CCN2CCN(c3ccccc3F)CC2)cc1   17.2 µM (active)

// next entry
## Task Query: AC50; subject: "COc1ccc(-c2oc3c4c(cc(OC)c3c(=O)c2CC=C(C)C)OC(C)(C)C=C4)c(OC)c1"
## Result 6.2 µM (active)
